- systemUnderTest: T1, human tissue factor pathway inhibitor (TFPI) (human, UniProt P10646 29-304, limits assumed)
- T1 construct: Bought protein; also called human TFPI; hTFPI
- T1 sequence (looked up): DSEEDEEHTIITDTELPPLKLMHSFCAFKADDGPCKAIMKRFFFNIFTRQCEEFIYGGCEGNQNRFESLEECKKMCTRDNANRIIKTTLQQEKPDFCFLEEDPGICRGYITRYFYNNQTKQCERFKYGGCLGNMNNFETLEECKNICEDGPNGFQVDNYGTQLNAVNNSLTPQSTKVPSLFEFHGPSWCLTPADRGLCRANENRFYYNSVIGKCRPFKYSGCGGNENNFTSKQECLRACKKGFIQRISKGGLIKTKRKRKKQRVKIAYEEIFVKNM
- protocolDescription: ELISA, Fab on coated TFPI
# EC50 per entry
Form entry: value (nM) — number only.

Field: example entries. Status: answers known.
{"binder": "TP-2A5.1 Fab (Fab, V domains shown, Human Fab from HuCal Gold, expressed in E. coli TG1) VH: QVQLVESGGGLVQPGGSLRLSCAASGFTFSSYGSWVRQAPGKGLEWVSVISGSGSSTYYADSVKGRFTISRDNSKNTLYLQMNSLRAEDTAVYYCARVNISTHFDVWGQGTLVTVSS VL: DIELTQPPSVSVAPGQTARISCSGDNIPEKYVHWYQQKPGQAPVLVIHGDNNRPSGIPERFSGSNSGNTATLTISGTQAEDEADYYCQSFDAGSYFVFGGGTKLTVLG", "parameterMeasured": "EC50", "result": 28.6}
{"binder": "TP-4B7 Fab (Fab, V domains shown, Human Fab from HuCal Gold, expressed in E. coli TG1) VH: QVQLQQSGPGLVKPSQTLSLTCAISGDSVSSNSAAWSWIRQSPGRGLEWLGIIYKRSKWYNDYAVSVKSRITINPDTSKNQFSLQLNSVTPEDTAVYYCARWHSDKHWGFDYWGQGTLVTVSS VL: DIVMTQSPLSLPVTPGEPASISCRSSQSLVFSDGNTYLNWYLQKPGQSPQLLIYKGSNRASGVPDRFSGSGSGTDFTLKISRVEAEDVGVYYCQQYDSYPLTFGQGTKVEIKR", "parameterMeasured": "EC50", "result": 0.74}
{"binder": "TP-4E8 Fab (Fab, V domains shown, Human Fab from HuCal Gold, expressed in E. coli TG1) VH: QVQLVESGGGLVQPGGSLRLSCAASGFTFNDYAMSWVRQAPGKGLEWVSLIESVSSSTYYADSVKGRFTISRDNSKNTLYLQMNSLRAEDTAVYYCARTIGVLWDDVWGQGTLVTVSS VL: DIELTQPPSVSVAPGQTARISCSGDALGSKYVSWYQQKPGQAPVLVIYGDNKRPSGIPERFSGSNSGNTATLTISGTQAEDEADYYCQSYTYSLNQVFGGGTKLTVLG", "parameterMeasured": "EC50", "result": 36.9}
{"binder": "TP-2G9 Fab (Fab, V domains shown, Human Fab from HuCal Gold, expressed in E. coli TG1) VH: QVQLVESGGGLVQPGGSLRLSCAASGFTFNSYAMTWVRQAPGKGLEWVSAIKSDGSNTYYADSVKGRFTISRDNSKNTLYLQMNSLRAEDTAVYYCARNDSGWFDVWGQGTLVTVSS VL: DIALTQPASVSGSPGQSITISCTGTSSDLGGFNTVSWYQQHPGKAPKLMIYSVSSRPSGVSNRFSGSKSGNTASLTISGLQAEDEADYYCQSYDLNNLVFGGGTKLTVLG", "parameterMeasured": "EC50", "result": 10.8}

Moving on to the next binder.
In: Identify EC50 associated with the binder TP-2G6 Fab (Fab, V domains shown, Human Fab from HuCal Gold, expressed in E. coli TG1) VH: QVQLQQSGPGLVKPSQTLSLTCAISGDSVSSSSAAWSWIRQSPGRGLEWLGIIYYRSKWYNDYAVSVKSRITINPDTSKNQFSLQLNSVTPEDTAVYYCARHSMVGFDVWGQGTLVTVSS VL: DIVLTQSPATLSLSPGERATLSCRASQYVTSSYLAWYQQKPGQAPRLLIYGSSRATGVPARFSGSGSGTDFTLTISSLEPEDFATYYCQQYSSSPITFGQGTKVEIKR
Out: 0.48

Data provenance is patent US20120269817A1.
